# testedSystem: monkey GPC3-His protein (monkey)
# procedureDetails: ELISA, monkey GPC3-His coated; antibody 0.11 nM
measuredEndpoint: OD450 nm
Enter a number only.

Reference set, count: 3
| binder | experimentalResult |
| --- | --- |
| hAb006LH1L1b (antibody, human IgG1, V domains shown) VH: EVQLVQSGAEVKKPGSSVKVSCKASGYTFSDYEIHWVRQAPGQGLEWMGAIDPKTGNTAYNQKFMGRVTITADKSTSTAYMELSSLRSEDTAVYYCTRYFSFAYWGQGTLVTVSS VL: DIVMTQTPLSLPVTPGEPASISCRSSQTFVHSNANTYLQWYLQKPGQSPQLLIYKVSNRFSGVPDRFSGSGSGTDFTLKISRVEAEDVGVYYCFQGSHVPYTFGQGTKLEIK | 2.13 |
| hAb007LH3L1 (antibody, human IgG1, V domains shown) VH: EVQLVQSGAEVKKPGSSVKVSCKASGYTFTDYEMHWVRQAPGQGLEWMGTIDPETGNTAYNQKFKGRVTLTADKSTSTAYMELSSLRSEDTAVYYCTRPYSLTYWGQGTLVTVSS VL: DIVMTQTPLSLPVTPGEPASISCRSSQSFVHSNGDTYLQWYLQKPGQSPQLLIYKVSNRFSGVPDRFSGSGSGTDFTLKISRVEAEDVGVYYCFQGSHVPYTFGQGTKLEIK | 1.12 |
| hAb006LH1L1a (antibody, human IgG1, V domains shown) VH: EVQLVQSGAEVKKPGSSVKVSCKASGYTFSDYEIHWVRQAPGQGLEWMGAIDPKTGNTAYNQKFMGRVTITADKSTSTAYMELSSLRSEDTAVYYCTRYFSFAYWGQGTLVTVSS VL: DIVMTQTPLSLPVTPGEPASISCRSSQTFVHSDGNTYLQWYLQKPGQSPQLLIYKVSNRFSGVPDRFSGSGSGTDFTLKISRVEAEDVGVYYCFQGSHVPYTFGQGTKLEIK | 0.227 |

Enquiry: # OD450 nm lookup, item hAb005LH1L1 (antibody, human IgG1, V domains shown) VH: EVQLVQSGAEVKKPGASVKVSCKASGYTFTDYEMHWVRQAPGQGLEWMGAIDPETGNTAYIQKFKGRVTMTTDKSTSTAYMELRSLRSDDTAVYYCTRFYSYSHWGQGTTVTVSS VL: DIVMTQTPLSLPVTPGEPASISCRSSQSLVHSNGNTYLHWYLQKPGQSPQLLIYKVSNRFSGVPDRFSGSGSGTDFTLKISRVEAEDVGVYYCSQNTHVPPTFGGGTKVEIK
Return: 0.94
